Target: T1, HDAC9 catalytic domain
T1 chain: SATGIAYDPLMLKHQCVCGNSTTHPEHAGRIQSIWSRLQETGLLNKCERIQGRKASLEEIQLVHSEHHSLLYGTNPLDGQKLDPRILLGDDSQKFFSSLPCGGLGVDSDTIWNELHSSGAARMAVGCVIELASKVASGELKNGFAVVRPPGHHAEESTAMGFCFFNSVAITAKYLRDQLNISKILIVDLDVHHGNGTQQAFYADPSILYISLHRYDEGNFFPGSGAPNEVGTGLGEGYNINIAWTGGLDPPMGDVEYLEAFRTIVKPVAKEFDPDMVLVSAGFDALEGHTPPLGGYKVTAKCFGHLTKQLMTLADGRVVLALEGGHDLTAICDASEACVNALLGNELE
Assay: FP
No end group written: not given here.
ATTRIBUTE_MEASURED: Kd (µM)
Report the figure in µM without appending any unit label.

Exercise: Name the reported Kd value associated with the binder `C(BODIPY‑TMR)PRPLKEGSITQGTPLKYDTG`
Solution: 8.34
